- Tested Target: biotinylated HCV core peptide 151-171 (Peptide 3) (HCV-1)
- Assay Summary: EIA, captured mAb
Metric: Reactivity (OD492) (OD)
Give your result in OD as a bare value.

HCV 208A-874 (antibody, V domains shown) VH: QVQLQQPGAELVKPGASVKLSCKASGYTLSSYWMHWVKQRPGQGLEWIGEIHPSDSYTSYNQKFKDKATLTVDKSSSTAYMQLSSLTSEDSAVYYCARGGYYRYDEFAYWGQGTLVTVSA VL: DIVMTQSHKFMSTSIGDRVSITCKASQNVSPAVAWYQQKPGQSPKLLIYSASSRYTGVPDRFTGSGSGTAFTFTISSVQAEDLAVYFCQQHFSTPWTFGGGTMLEIKR yielded Reactivity (OD492) of 0.06

The recorded Reactivity (OD492) for entry HCV 208B-178 (antibody, V domains shown) VH: DVKLVESGGGLVKLGGSLKLSCAASGFTFSSYYMSWVRQTPEKRLELVAAINSNGGSTYYPDTVKGRFTISRDNAKNTLYLQMSSLKSEDTALYYCARHGGLGRRDWYFDVWGAGTTVTVSS VL: DIVLTQSPASLAVSLGQRATISCRASESVDNYGISFMHWYQQKPGQPPKLLIYRASNLESGIPARFSGSGSRTDFTLTINPVETDDVATYYCQQSNKDPFTFGSGAKLEIKR equals 1.69

get_value(item= HCV 208B-174 (antibody, V domains shown) VH: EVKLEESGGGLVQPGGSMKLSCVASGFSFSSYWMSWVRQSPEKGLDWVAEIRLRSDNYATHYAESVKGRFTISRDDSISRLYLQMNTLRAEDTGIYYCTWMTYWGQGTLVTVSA VL: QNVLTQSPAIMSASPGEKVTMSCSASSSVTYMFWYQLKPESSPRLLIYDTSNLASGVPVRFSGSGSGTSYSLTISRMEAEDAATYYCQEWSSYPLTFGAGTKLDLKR , readout=Reactivity (OD492)) returns 0.07

Lab note: HCV 208B-911 (antibody, V domains shown) VH: QVHLQQPGAELVRPGVSVKLSCKASGYTFTTYSINWMKQRPGQGLEWIGNIYPSTSHTNYNQKFRDKATMTVDKSSSTAYMQLSSPTSEDSAVYYCTINAYSMDYWGQGTSVTVSS VL: QIVLTQSPEIMSASPGEKVTITCSASSSVSFMYWFQQKPGTSPKLWIYITSNLASGVPTRFSGSGSGTSYSLTISRMEAEDAATYYCQQRSSFPYTFGGGTKLEMKR gave Reactivity (OD492) of 0.71

// Reactivity (OD492) value for HCV 208A-133 (antibody, V domains shown) VH: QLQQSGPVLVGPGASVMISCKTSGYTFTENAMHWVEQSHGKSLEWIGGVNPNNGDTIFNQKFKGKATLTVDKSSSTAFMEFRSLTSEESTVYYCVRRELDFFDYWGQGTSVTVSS VL: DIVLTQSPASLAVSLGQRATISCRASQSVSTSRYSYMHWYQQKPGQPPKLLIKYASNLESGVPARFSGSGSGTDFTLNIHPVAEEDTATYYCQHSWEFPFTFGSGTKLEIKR : 0.13
